target: Serine/threonine-protein kinase mTOR (Homo sapiens)
experiment: Inhibition of mTOR (unknown origin) at 10 uM
Label 1 when inhibition >= 7%; otherwise 0.

**Q:** Answer whether inhibition of CN(C)CCNc1ncc2cc(Oc3ccc(F)cc3F)c(=O)n(C)c2n1 is greater than or equal to 7%.
**A:** 0

**Q:** Check this molecule for inhibition at or above 7%: Cn1c(=O)c(Oc2ccc(F)cc2F)cc2cnc(Nc3ccc(N4CCCCC4)cc3)nc21
**A:** 1

**Q:** Hi team, for Cn1c(=O)c(Oc2c(Cl)cccc2Cl)cc2cnc(NC3CCOCC3)nc21 , is the recorded inhibition at or above 7%?
**A:** 1

**Q:** Identify whether the reported inhibition of the following molecule is 7% or greater: CN1CCN(c2ccc(Nc3ncc4cc(Oc5ccc(F)cc5F)c(=O)n(C)c4n3)cc2)CC1
**A:** 0

* * *

Field: inhibition. Provide a value for each of the compounds that follow.
target: Mitogen-activated protein kinase 8 (Rattus norvegicus)
experiment: Inhibition of JNK1 phosphorylation in rat RINm5F cells assessed as suppression of albumin-conjugated palmitate-induced IRS-1 Ser307 phosphorylation incubated for 8 hrs
Assay type: cell-based
Set-up: concentration or dose not given beside the values
measurement-setup: concentration not given here
Value expressed in %; do not type the unit.

**Q:** If you can, please state the reported inhibition value of Cn1c(=O)c(Oc2c(Cl)cccc2Cl)cc2cnc(Nc3ccc(N4CCC(O)CC4)cc3)nc21 .
**A:** 58

**Q:** Dear colleague, I am looking for the recorded inhibition of the following compound: Cn1c(=O)c(Oc2ccc(F)cc2F)cc2cnc(NCCCNS(C)(=O)=O)nc21
**A:** 87

**Q:** Data request, read-out inhibition, for Cn1c(=O)c(Oc2ccc(F)cc2F)cc2cnc(NC3CCCC3)nc21
**A:** 61

**Q:** Which inhibition value belongs to Cn1c(=O)c(Oc2ccc(F)cc2F)cc2cnc(NC3CCCCC3)nc21 ?
**A:** 93

**Q:** Sample Cn1c(=O)c(Oc2ccc(F)cc2F)cc2cnc(NC3CCN(S(N)(=O)=O)CC3)nc21 — what was its inhibition?
**A:** 96

* * *

target: Receptor tyrosine-protein kinase erbB-2 (Homo sapiens)
experiment: Inhibition of ERBB2 (unknown origin) at 10 uM
For each record, write down the corresponding inhibition.
A number alone suffices; assume %.

**Q:** Quick check: inhibition on Receptor tyrosine-protein kinase erbB-2 (Homo sapiens), item CN1CCN(c2ccc(Nc3ncc4cc(Oc5c(Cl)cccc5Cl)c(=O)n(C)c4n3)cc2)CC1 ?
**A:** 42

**Q:** Tell me reported inhibition for Cn1c(=O)c(Oc2c(Cl)cccc2Cl)cc2cnc(NC3CCOCC3)nc21 , tested with Receptor tyrosine-protein kinase erbB-2 (Homo sapiens).
**A:** 11

**Q:** Could you share what inhibition was measured for CN1CCN(CCCNc2ncc3cc(Oc4ccc(F)cc4F)c(=O)n(C)c3n2)CC1 , tested on Receptor tyrosine-protein kinase erbB-2 (Homo sapiens)?
**A:** 23

**Q:** Fill in the recorded inhibition for this compound, with Receptor tyrosine-protein kinase erbB-2 (Homo sapiens) as test system: Cn1c(=O)c(Oc2ccc(F)cc2F)cc2cnc(Nc3ccc(N4CCCCC4)cc3)nc21
**A:** 26

**Q:** inhibition of Cn1c(=O)c(Oc2ccc(F)cc2F)cc2cnc(NC3CCN(S(C)(=O)=O)CC3)nc21 on Receptor tyrosine-protein kinase erbB-2 (Homo sapiens)?
**A:** 0

**Q:** What is its inhibition for Receptor tyrosine-protein kinase erbB-2 (Homo sapiens)? Entry: CN(C)CCNc1ncc2cc(Oc3ccc(F)cc3F)c(=O)n(C)c2n1
**A:** 8

**Q:** Lookup: inhibition / Receptor tyrosine-protein kinase erbB-2 (Homo sapiens) / CN1CCN(c2ccc(Nc3ncc4cc(Oc5ccc(F)cc5F)c(=O)n(C)c4n3)cc2)CC1
**A:** 74

**Q:** Form field: inhibition recorded for Cn1c(=O)c(Oc2ccc(F)cc2F)cc2cnc(Nc3ccc(N4CCC(O)CC4)cc3)nc21 with Receptor tyrosine-protein kinase erbB-2 (Homo sapiens) (enter value)
**A:** 78

**Q:** Short answer please: inhibition, Receptor tyrosine-protein kinase erbB-2 (Homo sapiens), entry Cn1c(=O)c(Oc2ccc(F)cc2F)cc2cnc(NCCc3ccccn3)nc21
**A:** 19

* * *

target: Serine/threonine-protein kinase mTOR (Homo sapiens) (UniProt P42345)
experiment: Inhibition of mTOR (unknown origin) at 10 uM
reported-metric: inhibition (%)
Number in %, nothing else.

**Q:** Checklist item: inhibition tested on Serine/threonine-protein kinase mTOR (Homo sapiens) (UniProt P42345), entry CN1CCN(CCCNc2ncc3cc(Oc4ccc(F)cc4F)c(=O)n(C)c3n2)CC1 , value?
**A:** 9

**Q:** Form field - read-out: inhibition; system: Serine/threonine-protein kinase mTOR (Homo sapiens) (UniProt P42345); submitted item: Cn1c(=O)c(Oc2ccc(F)cc2F)cc2cnc(NCCc3ccccn3)nc21
**A:** 15

**Q:** Find the measured inhibition: item Cn1c(=O)c(Oc2ccc(F)cc2F)cc2cnc(Nc3ccc(N4CCC(O)CC4)cc3)nc21 , target or system Serine/threonine-protein kinase mTOR (Homo sapiens) (UniProt P42345).
**A:** 22

**Q:** Kindly state the measured inhibition obtained for Cn1c(=O)c(Oc2ccc(F)cc2F)cc2cnc(NC3CCN(S(C)(=O)=O)CC3)nc21 with Serine/threonine-protein kinase mTOR (Homo sapiens) (UniProt P42345).
**A:** 19

* * *

target: Inhibitor of nuclear factor kappa-B kinase subunit beta (Homo sapiens)
Sequence (whole entry): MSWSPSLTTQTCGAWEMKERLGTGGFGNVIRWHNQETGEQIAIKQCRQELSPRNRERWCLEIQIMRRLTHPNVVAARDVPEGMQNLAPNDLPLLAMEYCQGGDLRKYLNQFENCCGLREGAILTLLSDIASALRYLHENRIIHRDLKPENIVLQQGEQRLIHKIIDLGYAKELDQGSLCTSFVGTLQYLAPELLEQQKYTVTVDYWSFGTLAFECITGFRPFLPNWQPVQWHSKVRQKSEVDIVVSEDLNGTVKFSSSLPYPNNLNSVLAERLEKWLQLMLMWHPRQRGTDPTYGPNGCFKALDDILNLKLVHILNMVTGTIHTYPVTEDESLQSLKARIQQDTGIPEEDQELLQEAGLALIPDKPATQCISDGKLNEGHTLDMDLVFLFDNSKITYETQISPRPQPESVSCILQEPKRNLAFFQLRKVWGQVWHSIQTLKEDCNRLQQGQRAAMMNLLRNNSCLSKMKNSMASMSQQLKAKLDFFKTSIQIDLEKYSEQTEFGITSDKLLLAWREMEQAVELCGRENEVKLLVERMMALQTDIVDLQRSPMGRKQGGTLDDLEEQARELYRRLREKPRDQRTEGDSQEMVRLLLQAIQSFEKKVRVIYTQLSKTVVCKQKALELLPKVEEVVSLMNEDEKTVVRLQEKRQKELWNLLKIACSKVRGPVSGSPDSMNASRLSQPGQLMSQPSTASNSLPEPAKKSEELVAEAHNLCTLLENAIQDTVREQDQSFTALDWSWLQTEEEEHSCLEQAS
experiment: Inhibition of IKKbeta (unknown origin) at 10 uM
reported-metric: inhibition
Answer shape: numeric part, then the unit.

**Q:** Would you kindly share the measured inhibition for CN1CCN(c2ccc(Nc3ncc4cc(Oc5ccc(F)cc5F)c(=O)n(C)c4n3)cc2)CC1 ?
**A:** 5%

**Q:** What does the data say about its inhibition? Entry: Cn1c(=O)c(Oc2c(Cl)cccc2Cl)cc2cnc(NC3CCOCC3)nc21
**A:** 3%

**Q:** Can you share its inhibition? I mean this compound: Cn1c(=O)c(Oc2ccc(F)cc2F)cc2cnc(Nc3ccc(N4CCC(O)CC4)cc3)nc21
**A:** 16%

**Q:** Data request, read-out inhibition, for CN(C)CCNc1ncc2cc(Oc3ccc(F)cc3F)c(=O)n(C)c2n1
**A:** 3%

**Q:** I would be grateful if you could share the reported inhibition for Cn1c(=O)c(Oc2ccc(F)cc2F)cc2cnc(NCCc3ccccn3)nc21 .
**A:** 6%

* * *

Tested on: HEK293
experiment: Cytotoxicity against HEK293 after 24 hrs by CellTiter-Glo luminescent cell viability assay
Assay type: cell-based
measurement-setup: Homo sapiens, HEK293, 24 h
pIC50: −log10 of the molar value.
Would you mind telling me the reported pIC50 of each entry?

**Q:** Could you tell me which pIC50 is on file for Cn1c(=O)c(Oc2ccc(F)cc2F)cc2cnc(NCCc3ccccn3)nc21 ?
**A:** < 4.52

**Q:** Quick one: pIC50 for Cn1c(=O)c(Oc2ccc(F)cc2F)cc2cnc(NCc3cccc(C(F)(F)F)c3)nc21 ?
**A:** < 4.52

**Q:** I have this molecule here, Cn1c(=O)c(Oc2ccc(F)cc2F)cc2cnc(NCCNS(C)(=O)=O)nc21 , and I need its recorded pIC50.
**A:** < 4.52

**Q:** So what does the record say about pIC50 for Cn1c(=O)c(Oc2ccc(F)cc2F)cc2cnc(NCCN3CCOCC3)nc21 ?
**A:** < 4.52

**Q:** Which pIC50 value is on record for Cn1c(=O)c(Oc2ccc(F)cc2F)cc2cnc(NC3CCN(S(N)(=O)=O)CC3)nc21 ?
**A:** < 4.52
